Source of measurements: ChEMBL document CHEMBL1145230

Recorded inhibition values for a group of molecules are listed next.
System: Setaria cervi
Test: Percent inhibition of filarial parasite Setaria cervi by compound at 10 ug/mL concentration
Format: functional
Respond numerically; units are % and should not be typed.

{"structure string": "Nc1nc(NCCCN2CCOCC2)cc(-c2cccs2)n1", "inhibition / %": 80}
{"structure string": "Nc1ccc(-c2nc(NCCCN3CCOCC3)cc(-c3cccs3)n2)cc1", "inhibition / %": 70}
{"structure string": "Nc1nc(NCCN2CCOCC2)cc(-c2cccs2)n1", "inhibition / %": 80}
{"structure string": "CN1CCN(c2cc(-c3cccs3)nc(-c3ccc(N)cc3)n2)CC1", "inhibition / %": 80}
{"structure string": "CN1CCN(c2cc(-c3cccs3)nc(N)n2)CC1", "inhibition / %": 80}
{"structure string": "CCn1cc(C(=O)O)c(=O)c2ccc(C)nc21", "inhibition / %": 20}

Please turn your attention to the following entry.
GET /values?readout=inhibition&item= CO[C@@H]1[C@@H](OC(N)=O)[C@@H](O)[C@H](Oc2ccc3c(O)c(NC(=O)c4ccc(O)c(CC=C(C)C)c4)c(=O)oc3c2C)OC1(C)C
10
